assay: chemical genetic growth profiling, strain panel (AID 1159580);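 also: tested at 20 µM; growth read once vehicle control cultures reached saturation at 30 °C; 1 = growth at the plate median or of vehicle wells; lower values mean less growth of the strain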; conditions: S. cerevisiae deletion strains, growth OD, locus YBR279W, strain paf1, active compounds read low
Screen size: about 5,500 compounds; about 2,000 (36%) were called active. Another 18% or so got no clear call; they are omitted. Some of the results follow.
measured_parameter: normalized growth
Just the number, please, no unit attached.

Solved cases below.
compound: COc1ccc(/C=C/c2cc(O)cc(O)c2)cc1
measured_parameter: normalized growth
endpoint_value: 1

compound: NC(=O)N/N=C\c1ccc([N+](=O)[O-])o1
measured_parameter: normalized growth
endpoint_value: 0.995

compound: CCn1cc(C(=O)O)c(=O)c2cnc(N3CCCC3)nc21
measured_parameter: normalized growth
endpoint_value: 0.989

compound: O=C(O)CCC(=O)c1ccc(-c2ccccc2)cc1
measured_parameter: normalized growth
endpoint_value: 0.975

compound: C=CC1=C(C)/C(=C/c2[nH]c(Cc3[nH]c(/C=C4\NC(=O)C(C)=C4C=C)c(C)c3CCC(=O)O)c(CCC(=O)O)c2C)NC1=O
measured_parameter: normalized growth
endpoint_value: 0.995

compound: O=C(O)c1cc(=O)c2c(OCC(O)COc3cccc4oc(C(=O)O)cc(=O)c34)cccc2o1
measured_parameter: normalized growth
endpoint_value: 0.995

compound: CCn1cc(C(=O)O)c(=O)c2ccc(C)nc21
measured_parameter: normalized growth
endpoint_value: 0.924

compound: OC1CCCCC1N1CCC(c2ccccc2)CC1 (stereo unspecified)
measured_parameter: normalized growth
endpoint_value: 0.999

compound: O=C1OCCN1/N=C\c1ccc([N+](=O)[O-])o1
measured_parameter: normalized growth
endpoint_value: 0.986

compound: CCn1cc(C(=O)O)c(=O)c2cnc(N3CCNCC3)nc21
measured_parameter: normalized growth
endpoint_value: 1.01

Then this compound:
Give its normalized growth value. Item: "CCn1cc(C(=O)O)c(=O)c2cc3c(cc21)OCO3" 0.977
